Catalogue of IC50 values
test system: HuCCA-1 (human chlolangiocarcinoma); test: Cytotoxicity, MTT assay, HuCCA-1; type: cell-based; details: HuCC-A1, mean ± S.D. (n = 3), MTT assay
// return numeric value only (unit: µM, not printed)

// worked examples, IC50 included
{"Compound": "CC(CCC(C)(O)[C@H]1CC[C@H]2[C@@H]3[C@H](O)C[C@H]4CC(=O)CC[C@]4(C)[C@H]3C[C@@H](O)[C@]12C)C1CC1C (stereo partly drawn) [Compound 8, xestokerol B]", "Experimental readout": "IC50", "Observed measurement": 103}
{"Compound": "C[C@H](CC[C@](C)(O)[C@H]1CC[C@H]2[C@@H]3CC[C@H]4CC(=O)CC[C@]4(C)[C@H]3C[C@@H](O)[C@@]21C)[C@H]1C[C@@H]1C [Compound 7, aragusterol B]", "Experimental readout": "IC50", "Observed measurement": 25.1}
{"Compound": "COC1(OC)CC[C@@]2(C)C(CC[C@H]3C4CC[C@H]([C@@](O)(CO)[C@H](O)C[C@@H](C)[C@@H]5C[C@H]5C)[C@@]4(C)[C@H](O)C[C@@H]32)C1 (stereo partly drawn) [Compound 13]", "Experimental readout": "IC50", "Observed measurement": 20.8}
{"Compound": "C[C@H](CC[C@](C)(O)[C@H]1CC[C@@]2(O)[C@@H]3CC[C@H]4C[C@H](O)CC[C@]4(C)[C@H]3C[C@@H](O)[C@]12C)[C@@H]1C[C@H]1C [Compound 2]", "Experimental readout": "IC50", "Observed measurement": 37.9}
{"Compound": "C[C@H](CC[C@](C)(O)[C@H]1CC[C@H]2[C@@H]3CC[C@H]4C[C@H](O)CC[C@]4(C)[C@H]3C[C@@H](O)[C@@]21C)[C@@H]1C[C@H]1C [Compound 6, aragusterol I]", "Experimental readout": "IC50", "Observed measurement": 37.1}

Report IC50 for CC1CC1C(C)CC(O)C(O)(CO)[C@H]1CC[C@H]2[C@@H]3CC[C@H]4CC(=O)CC[C@]4(C)[C@H]3C[C@@H](O)[C@]12C (stereo partly drawn) [Compound 14, xestokerol A] please. 34.4

Param item = COC1(OC)CC[C@@]2(C)C(CC[C@H]3C4CC[C@H]([C@]5([C@@H](O)C[C@@H](C)[C@@H]6C[C@H]6C)CO5)[C@@]4(C)[C@H](O)C[C@@H]32)C1 (stereo partly drawn) [Compound 16, aragusterolketal] ; retrieve measured IC50. 34.6

Any idea what its IC50 is? The compound is CC(C)CC=CC(C)(O)C1CCC2C3C(O)CC4CC(=O)CCC4(C)C3CC(O)C21C (stereo not drawn) [Compound 12] 66.1

Requested read-out: IC50. Entry: C[C@@H]1C[C@H]1[C@H](C)C[C@@H](O)[C@@]1([C@H]2CC[C@H]3[C@@H]4CC[C@H]5CC(=O)CC[C@]5(C)[C@H]4C[C@@H](O)[C@]23C)CO1 [Compound 15, aragusterol A] 37.6

* * *

Entries and their IC50 values follow.
test system: MRC-5 (normal human embryonic lung fibroblasts); test: Cytotoxicity toward normal cell line MRC-5; type: cell-based; conditions: MRC5, MRC-5 normal cell line, mean ± S.D. (n = 3)
Use µM as the unit, but write only the number.

{"Compound": "CC(CCC(C)(O)C1CCC2C3C(O)CC4CC(O)CCC4(C)C3CC(O)C21C)C1CC1C (stereo not shown)", "Experimental readout": "IC50", "Observed measurement": 40.1}
{"Compound": "C[C@H](CC[C@](C)(O)[C@H]1CC[C@H]2[C@@H]3CC[C@H]4C[C@H](O)CC[C@]4(C)[C@H]3C[C@@H](O)[C@@]21C)[C@@H]1C[C@H]1C", "Experimental readout": "IC50", "Observed measurement": 63.4}
{"Compound": "CC(C)CC=CC(C)(O)C1CCC2C3C(O)CC4CC(=O)CCC4(C)C3CC(O)C21C (stereo not shown)", "Experimental readout": "IC50", "Observed measurement": 76.9}

API: the following record is the query input.
IC50 lookup needed for CC(CCC(C)(O)[C@H]1CC[C@H]2[C@@H]3[C@H](O)C[C@H]4CC(=O)CC[C@]4(C)[C@H]3C[C@@H](O)[C@]12C)C1CC1C (stereo partly shown) , thanks. 90.1
